Molecular target: T1, flag-tagged soluble TL3 (amino acids 105-251 of SEQ ID NO:234) (Homo sapiens (Human), UniProt O75888 105-250)
T1 construct: Heterologous flag-tagged control protein, immobilized in the ELISA; also called flagged tagged TL-3; not shown: Flag tag
T1 sequence: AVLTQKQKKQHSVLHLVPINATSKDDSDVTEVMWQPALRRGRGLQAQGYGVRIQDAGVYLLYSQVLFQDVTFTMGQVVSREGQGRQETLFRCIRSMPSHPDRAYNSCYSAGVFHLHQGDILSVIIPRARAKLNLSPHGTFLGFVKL
Assay: phage ELISA on immobilized flag-tagged soluble TL3
Property label: binding result

INSERT INTO results (binder, measured_result) VALUES
  ('GMBC730 (scFv) scFv: QVQLVESGGDSVKPGGSLRLSCAGSGFTFSDAWMNWVRQAPGKGLEWVGRMKSKGSGGTRDYAAPVNGRFTISRDDSKNTLYLQMNSLNTEDTGVYYCTWDWDFYYGMDVWGKGTTVTVSSGGGGSGGGGSGGGGSQSVLTQPASVSGSPGQSITISCTGTSSDVGGYNYVSWYQQHPGKAPKLMIYEGSKRPSGVSNRFSGSKSGNTASLTISGLQAEDEADYYCSSYTTRSTRVFGGGTKLTVLG', 'no binding'),
  ('GMBC686 (scFv) scFv: EVQLVQSGGGLVKPGGSLRLSCAASGFTFSDAWMNWVRQAPGKGLEWVGRIKSKGSGGTIDYAAPVKDRFTISRDDSKNTLYLQMNSLKTEDTALYYCTWDWDFYYGMNVWGQGTTVTVSSGGGGSGGGGSGGGGSQSVLTQPASVSGSPGQSITISCTGTSSDVGGYNYVSWYQQHPGKAPKLMIYEGSKRPSGVSNRFSGSKSGNTASLTISGLQAEDEADYYCSSYTTRSTRVFGGGTKLTVLG', 'no binding'),
  ('GMBC627 (scFv) scFv: GVQLVQSGGEVKKPGASVRVSCKASRYIFSNYGFSWVRQAPGQGLEWMGSIRNDKGSTNYAQGFQDRLTMTTDTSTNTVFMELRSLSSDDTAVYYCASAPYYYGMGIWGKGTLVTVSSGGGGSGGGGSGGGGSQSVLTQPASVSGSSGQSITISCTGTSSDVGGYNYVSWYQQHPGKAPKLMIYEVGNRPSGVSNRFSGSKSGNTASLTISGLQAEDEADYYCSSYTTRSTRVFGGGTKLTVLG', 'no binding');
